assay: Pharmacokinetics after 21 days dosing in the efficacy study (plasma, tumor and brain concentrations; plasma AUC at steady state), Example 14; format: in vivo, female BALB/c nude mice; conditions: mouse, plasma, po; 10 mg/kg p.o. BID × 21 days; read-out: Plasma AUC at steady state (Day 21), Average
Observation type: AUC (µg·h/mL)

[[record]]
smiles_input = "CCN(C)S(=O)(=O)Nc1ccc(F)c(Oc2ccc3ncn([C@H]4COC5(CCN(C6CC7(C6)CN(c6cc8c(cc6F)c(N6CCC(=O)NC6=O)nn8C)C7)CC5)C4)c(=O)c3c2)c1C#N"
observation_type = "AUC"
unit_label = "µg·h/mL"
reported = 312


###

experiment: Example 6 pharmacokinetics assay for PKPD study (plasma, tumor, liver); assay type: in vivo, BALB/c nude mice; conditions: mouse, plasma, po; 35 mg/kg, single dose; 24 h; read-out: Concentration in Plasma (mean ± SEM)
Observation type: concentration at 24 h

[[record]]
molecule = "COC(=O)N[C@@H](C)CNc1nccc(-c2cn(C(C)C)nc2-c2cc(Cl)cc(NS(C)(=O)=O)c2F)n1 [Encorafenib, encorafenib, reference compound]"
reported = "0.895 ng/mL"


###

test: Pharmacokinetics in female BALB/c nude mice bearing A375 xenografts, 1 day dosing (PK and PD study): plasma, tumor and brain concentrations, AUC; type: in vivo; conditions: mouse, tumor, po, 100 mg/kg, 100 mg/kg p.o. QD × 1 day; 48 h; read-out: Mean Concentration in Tumor ± SEM
Observation type: concentration at 48 h (ng/g)

[[record]]
compound = "CC(C)(C)c1nc(-c2cccc(NS(=O)(=O)c3c(F)cccc3F)c2F)c(-c2ccnc(N)n2)s1 [Dabrafenib, dabrafenib, reference compound]"
observation_type = "concentration at 48 h"
unit_label = "ng/g"
reported = 4.66


###

assay: Example 9 pharmacokinetics assay for the PK and PD study Part I, II and III (plasma, tumor, liver); type: in vivo, BALB/c nude mice; settings: mouse, liver, po; 10 mg/kg, p.o., single dose; 6 h; ± SEM; read-out: Mean Concentration in Liver
# maps each entry to its concentration at 6 h
Observation type: concentration at 6 h (ng/g)

[[record]]
molecule = "CCN(C)S(=O)(=O)Nc1ccc(F)c(Oc2ccc3ncn(C4CC5(C4)CN(C4CCC(c6cc7c(cc6F)c(N6CCC(=O)NC6=O)nn7C)CC4)C5)c(=O)c3c2)c1C#N (single isomer, unassigned) [Compound 204]"
observation_type = "concentration at 6 h"
reported = 606

[[record]]
molecule = "CO[C@@H]1CCN(S(=O)(=O)Nc2ccc(F)c(Oc3ccc4ncn([C@H]5COC6(CCN(C7CC8(C7)CN(c7cc9c(cc7F)c(N7CCC(=O)NC7=O)nn9C)C8)CC6)C5)c(=O)c4c3)c2C#N)C1 [Compound 144]"
observation_type = "concentration at 6 h"
reported = 1890

[[record]]
molecule = "CCN(C)S(=O)(=O)Nc1ccc(F)c(Oc2ccc3ncc(OC4CC5(CCN(C6CCC(c7cc8c(cc7F)c(N7CCC(=O)NC7=O)nn8C)CC6)CC5)C4)nc3c2)c1C#N (single isomer, unassigned) [Compound 218]"
observation_type = "concentration at 6 h"
reported = 5710

[[record]]
molecule = "CO[C@H]1CCN(S(=O)(=O)Nc2ccc(F)c(Oc3ccc4ncn([C@H]5COC6(CCN(C7CC8(C7)CN(c7cc9c(cc7F)c(N7CCC(=O)NC7=O)nn9C)C8)CC6)C5)c(=O)c4c3)c2C#N)C1 [Compound 157]"
observation_type = "concentration at 6 h"
reported = 2000

[[record]]
molecule = "Cn1nc(N2CCC(=O)NC2=O)c2cc(F)c(N3CC4(CC(N5CCC6(CC5)C[C@@H](n5cnc7ccc(Oc8c(F)ccc(NS(=O)(=O)N9CC[C@@H](F)C9)c8C#N)cc7c5=O)CO6)C4)C3)cc21 [Compound 133]"
observation_type = "concentration at 6 h"
reported = 2030

[[record]]
molecule = "CCN(C)S(=O)(=O)Nc1ccc(F)c(Oc2ccc3ncn(C4CC5(CCN(C6CC7(CCN(c8cc9c(cc8F)c(N8CCC(=O)NC8=O)nn9C)CC7)C6)CC5)C4)c(=O)c3c2)c1C#N (stereo not drawn) [Compound 198]"
observation_type = "concentration at 6 h"
reported = 2240


###

experiment: Pharmacokinetics in female BALB/c nude mice bearing A375 xenografts, 1 day dosing (PK and PD study): plasma, tumor and brain concentrations, AUC; assay type: in vivo; conditions: mouse, plasma, po, 100 mg/kg, 100 mg/kg p.o. QD × 1 day; 1 h; read-out: Mean Concentration in Plasma ± SEM
Observation type: concentration at 1 h (ng/mL)

[[record]]
molecule = "CC(C)(C)c1nc(-c2cccc(NS(=O)(=O)c3c(F)cccc3F)c2F)c(-c2ccnc(N)n2)s1 [Dabrafenib, dabrafenib, reference compound]"
unit_label = "ng/mL"
reported = 7490


###

target: BRAF V600E (Homo sapiens, UniProt P15056+Q96SW2, V600E); construct: knock-in of the HiBiT tag to the endogenous BRAF V600E locus; host or cells: A375.10 (A375 clonal line, CRISPR HiBiT knock-in at the endogenous BRAF V600E locus); experiment: BRAF V600E HiBiT Degradation Assay; format: cell-based; conditions: A375.10 cells, BRAF V600E, 2 hours; residual protein remaining
Sequence (P15056 whole entry V600E): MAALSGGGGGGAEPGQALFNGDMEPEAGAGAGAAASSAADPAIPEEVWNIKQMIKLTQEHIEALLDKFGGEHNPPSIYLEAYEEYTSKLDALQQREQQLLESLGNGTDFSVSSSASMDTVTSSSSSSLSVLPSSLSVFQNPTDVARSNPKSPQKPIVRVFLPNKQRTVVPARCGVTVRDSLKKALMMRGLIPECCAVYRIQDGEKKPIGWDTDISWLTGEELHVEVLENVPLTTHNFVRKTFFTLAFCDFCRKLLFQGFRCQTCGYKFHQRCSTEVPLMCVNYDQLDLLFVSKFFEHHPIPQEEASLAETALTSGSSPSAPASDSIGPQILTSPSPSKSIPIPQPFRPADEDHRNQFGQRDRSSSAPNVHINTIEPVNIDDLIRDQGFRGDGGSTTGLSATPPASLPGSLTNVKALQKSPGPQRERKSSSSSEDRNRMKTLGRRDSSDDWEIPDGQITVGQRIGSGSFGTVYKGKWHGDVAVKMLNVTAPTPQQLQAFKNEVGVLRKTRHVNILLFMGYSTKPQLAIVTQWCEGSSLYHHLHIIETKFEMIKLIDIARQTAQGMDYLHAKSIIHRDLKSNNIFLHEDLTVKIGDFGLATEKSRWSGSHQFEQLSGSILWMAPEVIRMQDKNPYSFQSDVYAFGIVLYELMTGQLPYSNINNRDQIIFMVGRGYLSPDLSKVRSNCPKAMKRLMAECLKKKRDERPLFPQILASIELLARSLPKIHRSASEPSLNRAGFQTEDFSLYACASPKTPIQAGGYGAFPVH
Sequence (Q96SW2 whole entry): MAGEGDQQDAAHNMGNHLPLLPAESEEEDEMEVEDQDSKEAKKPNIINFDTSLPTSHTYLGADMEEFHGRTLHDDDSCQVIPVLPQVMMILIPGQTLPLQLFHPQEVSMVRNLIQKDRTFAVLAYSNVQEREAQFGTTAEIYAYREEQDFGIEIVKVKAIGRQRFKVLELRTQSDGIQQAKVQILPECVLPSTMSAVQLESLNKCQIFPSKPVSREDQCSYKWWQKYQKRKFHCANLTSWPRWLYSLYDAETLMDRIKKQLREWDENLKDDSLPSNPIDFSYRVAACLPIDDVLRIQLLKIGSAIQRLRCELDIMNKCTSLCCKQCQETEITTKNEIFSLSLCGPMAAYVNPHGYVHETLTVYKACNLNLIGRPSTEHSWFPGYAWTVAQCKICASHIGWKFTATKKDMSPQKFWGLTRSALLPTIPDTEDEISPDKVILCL
Sequence (Q16531 whole entry partner): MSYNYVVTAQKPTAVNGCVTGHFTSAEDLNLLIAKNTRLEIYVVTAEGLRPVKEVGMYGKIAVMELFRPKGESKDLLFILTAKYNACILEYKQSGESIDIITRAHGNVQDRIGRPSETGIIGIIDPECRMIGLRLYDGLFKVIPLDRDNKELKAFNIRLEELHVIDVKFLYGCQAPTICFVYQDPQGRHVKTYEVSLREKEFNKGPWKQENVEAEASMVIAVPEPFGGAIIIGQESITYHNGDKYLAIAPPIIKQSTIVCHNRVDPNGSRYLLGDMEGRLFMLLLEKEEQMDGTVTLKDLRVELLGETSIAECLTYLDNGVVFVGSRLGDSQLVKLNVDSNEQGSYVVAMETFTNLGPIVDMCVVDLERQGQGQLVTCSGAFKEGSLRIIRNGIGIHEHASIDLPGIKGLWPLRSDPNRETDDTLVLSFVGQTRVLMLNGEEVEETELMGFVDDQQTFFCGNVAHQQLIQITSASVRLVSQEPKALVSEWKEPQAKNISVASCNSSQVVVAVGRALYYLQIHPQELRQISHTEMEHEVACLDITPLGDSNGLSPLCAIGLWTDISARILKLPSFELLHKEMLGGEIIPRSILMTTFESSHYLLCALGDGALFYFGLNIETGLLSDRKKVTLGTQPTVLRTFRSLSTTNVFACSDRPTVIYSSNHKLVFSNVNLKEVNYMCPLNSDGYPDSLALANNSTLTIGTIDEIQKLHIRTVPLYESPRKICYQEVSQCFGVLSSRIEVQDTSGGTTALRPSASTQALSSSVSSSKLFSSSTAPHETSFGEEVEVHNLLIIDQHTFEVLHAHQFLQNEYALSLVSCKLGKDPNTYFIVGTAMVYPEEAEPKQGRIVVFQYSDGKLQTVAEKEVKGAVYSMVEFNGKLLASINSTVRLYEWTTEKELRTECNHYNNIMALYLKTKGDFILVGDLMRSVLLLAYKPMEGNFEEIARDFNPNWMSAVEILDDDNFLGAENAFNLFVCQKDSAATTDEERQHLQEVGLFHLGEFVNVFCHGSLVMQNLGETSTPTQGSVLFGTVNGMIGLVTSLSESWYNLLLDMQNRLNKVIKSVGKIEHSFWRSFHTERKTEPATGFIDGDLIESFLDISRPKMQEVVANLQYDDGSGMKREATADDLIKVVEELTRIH
Observation type: HiBiT-Degradation A375.10 BRAF 2 hours Emax

[[record]]
molecule = "CN(CCO)S(=O)(=O)Nc1ccc(F)c(Oc2ccc3ncc(C4CC5(CCN(C6CCC(c7cc8c(cc7F)c(N7CCC(=O)NC7=O)nn8C)CC6)CC5)C4)nc3c2)c1C#N (single isomer, unassigned) [Compound 295]"
reported = "** (<90% and >50%)"

[[record]]
molecule = "CCN(C)S(=O)(=O)Nc1ccc(F)c(Oc2ccc3ncc(OC4CC5(C4)CN(C4CCC(c6cc7c(cc6F)c(N6CCC(=O)NC6=O)nn7C)CC4)C5)nc3c2)c1C#N (single isomer, unassigned) [Compound 282]"
reported = "** (<90% and >50%)"

[[record]]
molecule = "CCN(C)S(=O)(=O)Nc1ccc(F)c(Oc2ccc3ncn(C4CC5(CCN(C6CCC(c7cc8c(cc7F)c(N7CCC(=O)NC7=O)nn8C)CC6F)CC5)C4)c(=O)c3c2)c1F (single isomer, unassigned) [Compound 185]"
reported = "** (<90% and >50%)"


###

test: Pharmacokinetics after 21 days dosing in the efficacy study (plasma, tumor and brain concentrations; plasma AUC at steady state), Example 14; format: in vivo, female BALB/c nude mice; details: mouse, plasma, po; 100 mg/kg p.o. QD x 21 days; 1 h; mean ± SEM
Observation type: concentration at 1 h (µg/mL)

[[record]]
compound = "CC(C)(C)c1nc(-c2cccc(NS(=O)(=O)c3c(F)cccc3F)c2F)c(-c2ccnc(N)n2)s1 [Dabrafenib, dabrafenib, reference compound]"
reported = 3.27


###

assay: Example 6 pharmacokinetics assay for PKPD study (plasma, tumor, liver); format: in vivo, BALB/c nude mice; details: mouse, liver, po; 10 mg/kg, single dose; 12 h; read-out: Concentration in Liver (mean ± SEM)
Observation type: concentration at 12 h

[[record]]
compound = "CCN(C)S(=O)(=O)Nc1ccc(F)c(Oc2ccc3ncn(C4CC5(CCN(C6CCC(c7cc8c(cc7F)c(N7CCC(=O)NC7=O)nn8C)CC6F)CC5)C4)c(=O)c3c2)c1C#N (single isomer, unassigned) [Compound 83]"
observation_type = "concentration at 12 h"
reported = "1580 ng/g"

[[record]]
compound = "Cn1nc(N2CCC(=O)NC2=O)c2cc(F)c(C3CCC(N4CCC5(CC4)CC(n4cnc6ccc(Oc7c(F)ccc(NS(=O)(=O)C8CCCC8)c7C#N)cc6c4=O)C5)CC3)cc21 (single isomer, unassigned) [Compound 93]"
observation_type = "concentration at 12 h"
reported = "117 ng/g"

[[record]]
compound = "CCN(C)S(=O)(=O)Nc1ccc(F)c(Oc2ccc3ncc([C@@H]4COC5(CCN(C6CCC(c7cc8c(cc7F)c(N7CCC(=O)NC7=O)nn8C)CC6)CC5)C4)nc3c2)c1C#N (single isomer, unassigned) [Compound 54]"
observation_type = "concentration at 12 h"
reported = "650 ng/g"


###

molecular target: BRAF V600E (Homo sapiens, UniProt P15056+Q96SW2, V600E); construct: knock-in of the HiBiT tag to the endogenous BRAF V600E locus; host or cells: A375.10 (A375 clonal line, CRISPR HiBiT knock-in at the endogenous BRAF V600E locus); experiment: BRAF V600E HiBiT Degradation Assay; assay type: cell-based; conditions: A375.10 cells, BRAF V600E, 2 hours; inflection point; read-out: HiBiT-Degradation A375.10 BRAF 2 hours IP
Observation type: DC50

[[record]]
compound = "CCN(C)S(=O)(=O)Nc1ccc(F)c(Oc2ccc3ncc(OC4CC5(C4)CN(C4CCC(c6cc7c(cc6F)c(N6CCC(=O)NC6=O)nn7C)CC4)C5)nc3c2)c1C#N (single isomer, unassigned) [Compound 281]"
reported = "< 1000 nM"

[[record]]
compound = "CN(CCO)S(=O)(=O)Nc1ccc(F)c(Oc2ccc3ncn([C@H]4COC5(CCN([C@H]6C[C@@H](c7ccc(NC8CCC(=O)NC8=O)cc7F)C6)CC5)C4)c(=O)c3c2)c1C#N (stereo partly drawn)"
reported = "< 1000 nM"

[[record]]
compound = "CCN(C)S(=O)(=O)Nc1ccc(F)c(Oc2ccc3ncn([C@H]4COC5(CCN(CC6CCN(c7cc8c(cc7F)c(N7CCC(=O)NC7=O)nn8C)CC6)CC5)C4)c(=O)c3c2)c1C#N"
reported = "< 1000 nM"

